Test system: Klebsiella pneumoniae ATCC11296
Assay: Broth microdilution MIC/MBC against Klebsiella pneumoniae ATCC11296
Assay type: cell-based
parameter: MBC/MIC
Form field (numeric): enter value without unit.

[ask] Give me measured MBC/MIC, please, for this molecule: O=c1c(O)c(-c2ccc(O)c(O)c2)oc2cc(O)cc(O)c12 [Compound 2, quercetin]
[reply] 1

[ask] Give me measured MBC/MIC, please, for this molecule: O=C(N[C@H](CO)[C@H](O)c1ccc([N+](=O)[O-])cc1)C(Cl)Cl [chloramphenicol, Chloramphenicol, reference compound]
[reply] 1

[ask] Give me measured MBC/MIC, please, for this molecule: O=C(O)[C@H]1O[C@@H](Oc2cc(O)c3c(=O)cc(-c4ccc(O)cc4)oc3c2)[C@H](O)[C@@H](O)[C@@H]1O [Compound 3, apigenin-7-O-β-D-glucuronopyranoside]
[reply] 1

[ask] Give me measured MBC/MIC, please, for this molecule: O=c1c(O[C@@H]2O[C@H](CO)[C@H](O)[C@H](O)[C@H]2O)c(-c2ccc(O)c(O)c2)oc2cc(O)cc(O)c12 [Compound 4, quercetin 3-O-β-D-galactopyranoside]
[reply] 2

[ask] Give me measured MBC/MIC, please, for this molecule: C[C@@H]1O[C@@H](OC[C@H]2O[C@@H](Oc3c(-c4ccc(O)c(O)c4)oc4cc(O)cc(O)c4c3=O)[C@H](O)[C@@H](O)[C@@H]2O)[C@H](O)[C@H](O)[C@H]1O [Compound 5]
[reply] 2
